Test system: OVCAR-5 ovarian
Experiment: NCI tumour cell line growth inhibition, 48 h; in the data active = GI50 below about 0.43 µM; inactive = the rest
Answer with one of the outcomes active, inactive

Query: For CCN(Cc1ccc(Cl)c(Cl)c1)c1ccc2nc(N)nc(N)c2c1C , what call appears in the results of this test?
Result: active

Query: Here is the next compound: CN(C)Cc1ccc(NC(=O)c2cncc(C#Cc3cnc(N)c4ncccc34)c2)cc1C(F)(F)F
Result: inactive

Query: Here is the next compound: O=C(O)CCCN1C(=O)/C(=C/C(Cl)=C/c2ccccc2)SC1=S
Result: inactive

Query: Here is the next compound: CN(C)S(=O)(=O)c1cccc(C(=O)Nc2nc(-c3ccc(F)c(F)c3)cs2)c1
Result: inactive

Query: Here is the next compound: COc1ccc(Cn2cc3c(c2-c2ccccc2)CCc2cnoc2-3)cc1
Result: inactive

Query: Here is the next compound: O=C(CCN1CCCC1)Nc1ccc2c(Nc3ccc(F)cc3)c3ccccc3nc2c1
Result: inactive

Query: Here is the next compound: COC(=O)CNC(=O)C(=O)c1c(O)c(O)c(C(C)C)c2cc(C)c(-c3c(C)cc4c(C(C)C)c(O)c(O)c(C(=O)C(=O)NCC(=O)OC)c4c3O)c(O)c12
Result: inactive

Query: Here is the next compound: CNc1c2ccccc2nc2occ(Cl)c12
Result: inactive

Query: Here is the next compound: COc1cc(/C=C/C(=O)c2c(C)n([O-])c3ccccc3[n+]2=O)cc(OC)c1OC
Result: inactive

====

Could you please report measured TGI for the items listed next?
Test system: NCI-H460 lung
Assay: NCI tumour cell line growth inhibition, 48 h

Query: What does the record list as TGI for COC(=O)c1ccc(OCCn2nnc(C(=O)NN)c2C(=O)NN)cc1 ?
Result: > 100 µM

Query: Here is the next molecule: CCN(Cc1cc(Cl)cc(C)c1O)Cc1c(O)ccc2ccccc12
Result: 36 µM

Query: Here is the next molecule: CCC1(O)C(=O)OCc2c1cc1n(c2=O)Cc2cc3cc4c(cc3nc2-1)OCO4 (stereo not given)
Result: 0.0156 µM

Query: Here is the next molecule: O=C1NC(c2ccccc2)(c2ccccc2)C(=O)N1CCCCCCN1C(=O)NC(c2ccccc2)(c2ccccc2)C1=O
Result: > 100 µM

Query: Here is the next molecule: S=C1SCC2CCCN12 (stereo not given)
Result: > 100 µM

Query: Here is the next molecule: O=C(Cn1c2ccc(Br)cc2c2nc3ccccc3nc21)NCc1ccccc1
Result: > 100 µM

Query: Here is the next molecule: O=[N+]([O-])c1ccccc1/C=N\NC(=S)N/N=C/c1ccccc1[N+](=O)[O-]
Result: > 100 µM

Query: Here is the next molecule: Nc1nnc(N)n1N
Result: > 100 µM

Query: Here is the next molecule: COC(=O)CNC(=O)C(=O)c1c(O)c(O)c(C(C)C)c2cc(C)c(-c3c(C)cc4c(C(C)C)c(O)c(O)c(C(=O)C(=O)NCC(=O)OC)c4c3O)c(O)c12
Result: 4.57 µM

Query: Here is the next molecule: COc1ccc(-c2c(C#N)c(N)[nH]c(=S)c2C#N)cc1
Result: > 100 µM

Query: Here is the next molecule: C=C1C(=O)OC2CC1C(OC(=O)/C=C/c1ccccc1)C/C(C)=C/CC/C(C)=C/CCC2(C)O (stereo not given)
Result: 2.74 µM

Query: Here is the next molecule: COc1ccc(CCN2CCCn3c2nc2ccccc2c3=O)cc1
Result: > 100 µM

Query: Here is the next molecule: COc1ccc2c(=O)c(-c3cc(OC)c(OC)cc3OC)coc2c1
Result: > 100 µM

Query: Here is the next molecule: COC(=O)C1(Cc2ccc3c(c2)CCC3)Cc2ccc3c(c2C1=O)CCC3 (stereo not given)
Result: > 63.9 µM

Query: Here is the next molecule: COc1ccc(/C=C\c2cc(OC)c(OC)c(OC)c2)cc1NC(=O)/C=C/c1ccc(OC)c(OC)c1
Result: > 100 µM

Query: Here is the next molecule: CCCC(=O)OCC1OC(n2cc(F)c(=O)[nH]c2=O)CC1OC(=O)CCC (stereo not given)
Result: > 10 µM

Query: Here is the next molecule: Cc1cc(NC(=O)NCCOc2ccc(N3C(N)=NC(N)=NC3(C)C)cc2Cl)ccc1S(=O)(=O)F
Result: 17.6 µM

Query: Here is the next molecule: COc1ccc2nc3cc(Cl)ccc3c(Nc3ccccc3-c3ccccc3Nc3c4ccc(Cl)cc4nc4ccc(OC)cc34)c2c1
Result: 98.9 µM

Query: Here is the next molecule: O=C1C=C(NCCc2ccc(O)c([N+](=O)[O-])c2)C(=O)c2[nH]cnc21
Result: 69.6 µM

Query: Here is the next molecule: O=[N+]([O-])c1ccc2c(c1)nc1n2C(c2c(F)cccc2F)SC1 (stereo not given)
Result: > 100 µM

====

Tested on: MALME-3M melanoma
Test: NCI tumour cell line growth inhibition, 48 h
measurement.type: TGI

Query: What does the record list as TGI for COc1ccc(C2=Nn3c(nnc3-c3ccc(F)c(Cl)c3)SC2)cc1 ?
Result: > 100 µM

Query: Here is the next compound: COC(=O)CNC(=O)C(=O)c1c(O)c(O)c(C(C)C)c2cc(C)c(-c3c(C)cc4c(C(C)C)c(O)c(O)c(C(=O)C(=O)NCC(=O)OC)c4c3O)c(O)c12
Result: 11 µM

Query: Here is the next compound: N[C@H]1CCC[C@@H](O)C1O (some centres undefined)
Result: > 100 µM

Query: Here is the next compound: CC(C)(C)OC(=O)NC(CSCc1ccc(C(=O)c2ccccc2)cc1)C(=O)N1CCN(CCCCN2c3ccccc3Sc3cc(N=[N+]=[N-])ccc32)CC1 (centres undefined)
Result: > 100 µM

Query: Here is the next compound: COc1c(C(=O)/C(=N/Nc2ccc(C(=O)O)cc2)C(C)=O)c(O)cc2occc12
Result: > 100 µM

Query: Here is the next compound: COc1ccc(-c2cc(=O)c3c(O)c(O)c(OC)cc3o2)cc1O
Result: > 100 µM

Query: Here is the next compound: Cc1cc(NC(=O)NCCOc2ccc(N3C(N)=NC(N)=NC3(C)C)cc2Cl)ccc1S(=O)(=O)F
Result: 41.1 µM

Query: Here is the next compound: COc1ccc2nc3cc(Cl)ccc3c(Nc3ccccc3-c3ccccc3Nc3c4ccc(Cl)cc4nc4ccc(OC)cc34)c2c1
Result: 68.6 µM

Query: Here is the next compound: N=c1oc2ccc3ccccc3c2cc1-c1nc2ccccc2c(=O)[nH]1
Result: > 100 µM

====

System: BT-549 breast
Experiment: NCI tumour cell line growth inhibition, 48 h
Could you please report measured TGI for the items listed next?

Query: What does the record list as TGI for CC1=C[P+](c2ccccc2)(c2ccccc2)c2ccccc2O1 ?
Result: > 100 µM

Query: Here is the next molecule: COc1cc(/C=C/C(=O)c2c(C)n([O-])c3ccccc3[n+]2=O)cc(OC)c1OC
Result: 13.5 µM

Query: Here is the next molecule: COc1ccc(/C=C\c2cc(OC)c(OC)c(OC)c2)cc1NC(=O)/C=C/c1ccc(OC)c(OC)c1
Result: > 100 µM

Query: Here is the next molecule: O=[N+]([O-])c1ccc(Sc2cccc[n+]2[O-])c2nonc12
Result: 25.8 µM

Query: Here is the next molecule: NCC(=O)Nc1ccc(Cl)cc1C(=O)c1ccc[nH]1
Result: > 100 µM

====

Tested on: RXF 393 renal
Experiment: NCI tumour cell line growth inhibition, 48 h
Classification field: yes (1) = TGI at or over 10 µM; no (0) = TGI under 10 µM.

Query: Could you please find out whether Cc1[nH]n(-c2nc(-c3ccccc3)cc(=O)[nH]2)c(=O)c1CCO has TGI that meets 10 µM or exceeds it?
Result: yes (1)

Query: Here is the next compound: CC1(Cl)C(=O)NC(=O)N([C@H]2C[C@H](O)[C@@H](CO)O2)C1N=[N+]=[N-] (stereo partly drawn)
Result: yes (1)

Query: Here is the next compound: Nc1n[n+]([O-])c2ccc(Cl)cc2[n+]1[O-]
Result: yes (1)

Query: Here is the next compound: Cc1cccc(NC(=O)c2c(N)[n+]([O-])c3ccccc3[n+]2[O-])c1
Result: yes (1)

Query: Here is the next compound: CC(C)(C)c1cc(C2c3cc4c(cc3OC(O)(CO)C2C(=O)O)OCO4)cc(C(C)(C)C)c1O (stereo not drawn) (tested in a mixture with another compound)
Result: yes (1)

Query: Here is the next compound: CC1=C(C)C(=O)OC(C(C)(O)C2(O)CC3OC34C3CC(O)C56OC5C=CC(=O)C6(C)C3CCC42C)C1 (stereo not drawn)
Result: no (0)

Query: Here is the next compound: O=S1(=O)OCCOS(=O)(=O)C1(F)Cc1ccccc1
Result: yes (1)

Query: Here is the next compound: CCC1(O)C(=O)OCc2c1cc1n(c2=O)Cc2cc3cc4c(cc3nc2-1)OCO4 (stereo not drawn)
Result: no (0)

Query: Here is the next compound: CN(C)N1C(=O)C(=O)N(c2cccc3ccccc23)C1=O
Result: yes (1)

Query: Here is the next compound: CC1=CC(=O)NP(=O)(Oc2ccc(Cl)cc2)N1 (stereo not drawn)
Result: yes (1)

Query: Here is the next compound: Cc1nc2c(Cl)cc(Cl)cc2c2c1CCO2
Result: yes (1)

Query: Here is the next compound: CCN(CC)Cc1cc(N=Nc2c(O)ccc3c(N=Nc4ccc(O)c(CN(CC)CC)c4)c(O)ccc23)ccc1O
Result: yes (1)

Query: Here is the next compound: N=c1oc2ccc3ccccc3c2cc1-c1nc2ccccc2c(=O)[nH]1
Result: yes (1)
